Experiment: S. cerevisiae growth inhibition in glucose medium, dose response, OD600, powder samples, set 3 (AID 623971)
Settings: S. cerevisiae growth in glucose, OD600, 48 h; at 3 µM (top of the series)
Kind request: treat -10% as inclusive, so activity change, negative = growth inhibition at -10% or higher is class 1, anything lower is class 0.

Hello, I need to know if CCOC(=O)N1C(=O)C2(CCCCC2)N(c2ccc(Cl)cc2)C1=S has measured activity change, negative = growth inhibition not below -10%. Thanks!
class 0

Decide: is the reported value of activity change, negative = growth inhibition for CCOC(=O)N1C(=O)C2(CCCCC2)N(c2ccccc2)C1=S equal to or greater than -10%?
class 0

Hi, just wondering whether CCOC(=O)N1C(=O)C2(CCCCC2)N(c2cccc(C)c2)C1=S shows activity change, negative = growth inhibition of -10% or higher.
class 1

Reported activity change, negative = growth inhibition reaches at least -10% for CCOC(=O)N1C(=O)C2(CCCCC2)N(c2ccc(C#N)cc2)C1=S ?
class 0

Does the reported activity change, negative = growth inhibition for C/C=C/[C@@H]1[C@H]2C[C@@H](C)CC[C@@H]2C(C)=C[C@H]1C(=O)c1c(O)c(-c2ccc(O)cc2)c[nH]c1=O fall at or above the -10% mark?
class 1

Is activity change, negative = growth inhibition for CCOC(=O)N1C(=O)C2(CCCCC2)N(c2ccc(F)cc2)C1=S at or above -10%?
class 1
